Measured MIC, listed per entry.
System: Pseudomonas aeruginosa
Experiment: Antimicrobial activity against clinical isolate Pseudomonas aeruginosa CCM 1961 after 120 hrs
Assay type: functional
Conditions: CCM 1961, 120 h

| mol_smiles | qual | MIC (µM) |
| --- | --- | --- |
| CCCCCCCCCCCCCCCC[n+]1ccc2c(O)cccc2c1 | > | 500 |
| CCCCCCCCCCCCCC[N+](C)(C)Cc1ccccc1 | = | 16 |
| CCCCCCCCCCCC[n+]1ccc2c(O)cccc2c1 | = | 63 |
| CCCCCCCCCC[n+]1ccc2ccccc2c1 | > | 500 |
| CCCCCCCCCCCCCCCC[n+]1ccc2ccccc2c1 | = | 125 |
| CCCCCCCCCCCCCCCCCC[n+]1ccc2ccccc2c1 | = | 125 |
| CCCCCCCCCC[n+]1ccc2c(O)cccc2c1 | = | 250 |

meta.source: ChEMBL document CHEMBL3751693
